System: MOLT-4 cells
Assay: MOLT-4 cell viability, MTT assay
Assay type: cell-based
Settings: Homo sapiens, MOLT-4, 48 h, 48 h exposure
Measured quantity: IC50 (nM)

[1] Cc1cc(N(C)c2ccc(-c3cnn(CC45CC6(C)CC(C)(C4)CC(OCCN(C)C)(C6)C5)c3C)c(C(=O)O)n2)nnc1Nc1nc2ccccc2s1
[2] CNCC#Cc1ccc(OCCCc2sc(N(CCCC(O)CN(C)CCP(=O)(O)O)c3cc(C)c(Nc4nc5ccccc5s4)nn3)nc2C(=O)O)c(F)c1 (centres unmarked)
[3] Cc1cc(N(CCCCC(=O)O)c2nc(C(=O)O)c(CCCOc3ccc(C#CCN(C)C)cc3F)s2)nnc1Nc1nc2ccccc2s1
# input Please rank the 3 items above; order by IC50, the highest number leading. Please list the labels according to the requested order.
# output 2, 3, 1
(2: 879 nM, 3: 112 nM, 1: 0.246 nM)

[a] Cc1cc(N(CCCC(O)C[N+](C)(C)C)c2nc(C(=O)[O-])c(CCCOc3ccc(C#CCN(C)C)cc3F)s2)nnc1Nc1nc2ccccc2s1 (centres unmarked)
[b] O=C(O)c1cccc(Nc2nnc(Nc3nc4ccccc4s3)c3c2CCCC3)n1
[c] CNCC#Cc1ccc(OCCCc2sc(N(CCC(O)COC)c3cc(C)c(Nc4nc5ccccc5s4)nn3)nc2C(=O)O)c(F)c1 (centres unmarked)
# input hey, can you rank those molecules up there by IC50? biggest number first please Hello, could you send the labels back in the order asked? Thank you.
# output b, a, c

[P] O=C(O)c1csc(Nc2nnc(Nc3nc4ccccc4s3)c3c2CCC3)n1
[Q] Cc1cc(N(C)c2nc(C(=O)O)c(CCCOc3ccc(C#CCN(C)C)cc3)s2)nnc1Nc1nc2ccccc2s1
# input Form: Entry with minimum IC50 (choose one): P / Q Your answer should be the label attached to the chosen record.
# output Q
(Q: 0.879 nM, P: 13000 nM)

[P] CNC/C=C/c1ccc(OCCCc2sc(N(CCCCO)c3cc(C)c(Nc4nc5ccccc5s4)nn3)nc2C(=O)O)c(F)c1
[Q] Cc1cc(N(CCCCCN2CCNCC2)c2nc(C(=O)O)c(CCCOc3ccc(C#CCN(C)C)cc3F)s2)nnc1Nc1nc2ccccc2s1
[R] Cc1cc(N(CCCCC[N+](C)(C)CC(=O)O)c2nc(C(=O)[O-])c(CCCOc3ccc(C#CCN(C)C)cc3F)s2)nnc1Nc1nc2ccccc2s1
# input Hey, can you sort those molecules up there by IC50, smallest first? When ranking, write the labels in the order the request describes.
# output P, Q, R

[I] Cc1c(Nc2nc(C(=O)O)c(CCCOc3ccccc3F)s2)nnc(Nc2nc3ccccc3s2)c1C
[II] COCC(O)CCN(c1cc(C)c(Nc2nc3ccccc3s2)nn1)c1nc(C(=O)O)cs1 (centres unmarked)
# input Determine, for I and II , which has the greater value of IC50. Your answer should be the label of the entry you select.
# output II
(II: 9400 nM, I: 2230 nM)

----------
System: MOLT-4 cells
Experiment: MOLT-4 cell viability, MTT assay
Assay type: cell-based
Conditions: Homo sapiens, MOLT-4, 48 h, 48 h exposure
Measured quantity: IC50 (nM)

Please review the following examples before continuing.
Substance smiles	Measured on	Unit tag	IC50
Cc1cc(N(C)c2ccc(-c3cnn(CC45CC6(C)CC(C)(C4)CC(OCCNCC[C@H](O)CO)(C6)C5)c3C)c(C(=O)O)n2)nnc1Nc1nc2ccccc2s1	MOLT-4 cells	nM	2.81
CNCC#Cc1ccc(OCCCc2sc(N(CCCCC[N+](C)(C)CCCS(=O)(=O)[O-])c3cc(C)c(Nc4nc5ccccc5s4)nn3)nc2C(=O)O)c(F)c1	MOLT-4 cells	nM	2880
COCCCN(c1cc(C)c(Nc2nc3ccccc3s2)nn1)c1nc(C(=O)O)c(CCCOc2ccccc2F)s1	MOLT-4 cells	nM	754

[a] Cc1cc(N(CCCCCN2CCC(N)CC2)c2nc(C(=O)O)c(CCCOc3ccc(C#CCN(C)C)cc3F)s2)nnc1Nc1nc2ccccc2s1
[b] Cc1cc(N(CCCCS(=O)(=O)O)c2nc(C(=O)O)c(CCCOc3ccc(C#CCN(C)C)cc3F)s2)nnc1Nc1nc2ccccc2s1
# input Between item a and item b , which reported IC50 is smaller? Use the label to indicate which entry you chose.
# output a
(a: 225 nM, b: 1190 nM)

[I] CC(C)c1cc(N(C)c2nc(C(=O)O)cs2)nnc1Nc1nc2ccccc2s1
[II] Cc1cc(N(C)c2nc(C(=O)O)c(C3CCN(C(=O)OC(C)(C)C)CC3)s2)nnc1Nc1nc2ccccc2s1
# input // compare: I vs II , metric IC50, want the smaller Give the chosen item's label as your response.
# output I
(I: 3890 nM, II: 7570 nM)

[1] Cc1cc(N(CCCCO)c2nc(C(=O)O)c(CCCOc3ccc(C#CCN(C)C)cc3F)s2)nnc1Nc1nc2ccccc2s1
[2] Cc1cc(N(C)c2nc(C(=O)O)c(CCCOc3ccc(CCCN(C)C)cc3F)s2)nnc1Nc1nc2ccccc2s1
[3] Cc1cc(N(C)c2nc(C(=O)O)c(CCCOc3ccc(C#CCN(C)C(=O)OC(C)(C)C)cc3F)s2)nnc1Nc1nc2ccccc2s1
# input Ascending by IC50, please. Rank the items, then write their labels in that order.
# output 1, 2, 3
(1: 0.783 nM, 2: 22.5 nM, 3: 68.3 nM)

----------
Target: BCLXL (Homo sapiens, UniProt Q07817, V10N/V9A)
Sequence (Q07817 with tags, fused parts or gaps V9A/V10N): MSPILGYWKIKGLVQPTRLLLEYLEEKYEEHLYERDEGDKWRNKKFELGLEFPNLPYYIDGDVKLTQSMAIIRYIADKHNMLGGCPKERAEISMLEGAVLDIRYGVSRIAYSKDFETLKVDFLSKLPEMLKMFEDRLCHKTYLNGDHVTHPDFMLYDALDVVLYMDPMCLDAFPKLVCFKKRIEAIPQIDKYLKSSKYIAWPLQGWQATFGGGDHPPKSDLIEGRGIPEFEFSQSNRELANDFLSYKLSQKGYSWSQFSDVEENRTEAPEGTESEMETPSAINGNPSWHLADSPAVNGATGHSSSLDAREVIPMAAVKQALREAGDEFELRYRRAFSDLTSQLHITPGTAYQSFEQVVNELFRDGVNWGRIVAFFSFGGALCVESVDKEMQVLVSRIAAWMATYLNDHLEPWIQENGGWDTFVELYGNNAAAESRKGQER
Assay: Fluorescence polarisation assay (PUMA-based probe displacement); note: 20 nM protein, 10 nM fluorescent probe
Description: Fluorescence polarization measures the rotation of a fluorescing species in solution, the larger the molecule the more polarized the fluorescence emission. [[…]] […] An 11-point serial dilution of each compound was prepared in DMSO, the final buffer conditions were 10 mM 4-(2-hydroxyethyl)-1-piperazineethanesulfonic acid [HEPES], 150 mM NaCl, 0.05% Tween 20, pH 7.4 and 5% DMSO. […] The KI values were determined from the IC50 values according to Cer et al, Nucleic Acids Res, 2009, Jul. […]
pKi: −log10 of the molar value.
Measured quantity: pKi

Some entries whose results are on file:
1) Cc1c(Nc2nc(C(=O)O)cs2)nnc(Nc2nc3cc(F)ccc3s2)c1C 7.31
2) COCCCC1(Cn2ncc(-c3sc(N(C)c4cc(C)c(Nc5nc6ccccc6s5)nn4)nc3C(=O)O)c2C)CCCCC1 8.33
3) Cc1cc(N(C)c2nc(C(=O)O)c(N3CC[C@@H](Oc4ccccc4)C3)s2)nnc1Nc1nc2ccccc2s1 7.04

[1] Cc1c(Nc2nc3ccccc3s2)nnc(Nc2nc(C(=O)O)cs2)c1CO
[2] Cc1c(Nc2nc(C(=O)O)c(CCCOc3ccc(C(=O)N(C)C)cc3F)s2)nnc(Nc2nc3ccccc3s2)c1C
[3] Cc1cc(N(C)c2nc(C(=O)O)c(C3CCN(c4ccccc4)CC3)s2)nnc1Nc1nc2ccccc2s1
[4] Cc1cc(N(C)c2nc(C(=O)O)c(CCCOc3ccc(C#CCO)cc3F)s2)nnc1Nc1nc2ccccc2s1
# input Number of molecules to sort: 4. Sort criterion: pKi, ascending. Please express your ranking as an ordered list of the labels.
# output 1, 3, 2, 4

----------
Biological target: Bcl-xL protein (Homo sapiens, UniProt Q07817, N197C)
Construct: (2-197)[N197C]; His-His (two His8 stretches joined by a Gly/Ala/Ser/Thr linker)
Sequence (Q07817 2-197 N197C): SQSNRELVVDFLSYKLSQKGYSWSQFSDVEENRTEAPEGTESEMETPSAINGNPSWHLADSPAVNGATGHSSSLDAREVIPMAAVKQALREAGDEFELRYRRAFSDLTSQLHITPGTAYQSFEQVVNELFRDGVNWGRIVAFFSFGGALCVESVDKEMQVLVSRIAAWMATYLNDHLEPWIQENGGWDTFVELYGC
Assay: Fluorescence quenching assay (PUMA peptide displacement)
Conditions: 1 nM protein, 400 nM peptide, 2 hours at 23° C.; KI determined from IC50
Excerpt: Fluorescence quenching assay measures the change in fluorescence intensity of C-terminally Cy5-labeled BCL-xL protein, His-His-(EK)-hs ? (2-197)[N197C] (UniProtKB® primary accession number Q07817-1) having an amino acid sequence (SEQ ID:03): [[…] […] The addition of a compound which binds competitively to the same site as the peptide will result in an increase in the fluorescence intensity of the protein due to displacement of the fluorescence quencher. […]
pKi: −log10 of the molar value.
Measured quantity: pKi

// worked examples, pKi included
Molecule	pKi
CNCC(O)CCCN(c1cc(C)c(Nc2nc3ccccc3s2)nn1)c1nc(C(=O)O)c(CCCOc2ccc(C#CCN(C)C)cc2F)s1 (stereo not shown) [Example 150]	11.77
Cc1cc(N(CCCCNC2CCN(C)CC2)c2nc(C(=O)O)c(CCCOc3ccc(C#CCN(C)C)cc3F)s2)nnc1Nc1nc2ccccc2s1 [Example 181]	11.37
CNCC#Cc1ccc(OCCCc2sc(N(C)c3cc(C)c(Nc4nc5ccccc5s4)nn3)nc2C(=O)O)c(F)c1 [Example 73]	11.55
Cc1cc(N(CCCC(O)C[N+](C)(C)CCCS(=O)(=O)[O-])c2nc(C(=O)O)c(CCCOc3ccc(/C=C/C=O)cc3F)s2)nnc1Nc1nc2ccccc2s1 (stereo not shown) [Example 228]	9.66
Cc1cc(N(CCCCC(=O)O)c2nc(C(=O)O)c(CCCOc3ccc(C#CCN(C)C)cc3F)s2)nnc1Nc1nc2ccccc2s1 [Example 243]	11.30
Cc1cc(N(CCCCC[N+](C)(C)CC(=O)O)c2nc(C(=O)[O-])c(CCCOc3ccc(C#CCN(C)C)cc3F)s2)nnc1Nc1nc2ccccc2s1 [Example 227]	11.46

[P] Cc1cc(N(C)c2ccc(-c3cnn(CC45CC6(C)CC(C)(C4)CC(OCCNCc4cccc(O)c4)(C6)C5)c3C)c(C(=O)O)n2)nnc1Nc1nc2ccccc2s1 [Example 272]
[Q] Cc1cc(N(C)c2nc(C(=O)O)c(CCCOc3ccc(C#CCN4CCCCC4)cc3F)s2)nnc1Nc1nc2ccccc2s1 [Example 204]
[R] C#CCCCN(c1cc(C)c(Nc2nc3ccccc3s2)nn1)c1nc(C(=O)O)c(CCCOc2ccc(C#CCNC)cc2F)s1 [Example 253]
# input // ascending sort on recorded pKi Output the labels ranked as instructed.
# output R, Q, P
(R: 10.15, Q: 11.22, P: 11.64)
